# assay info: Non-specific binding to ultrafiltration device in PBS
endpoint: fraction unbound

Query block: fraction unbound lookup needed for `COc1c(N2C[C@@H]3CCCN[C@@H]3C2)c(F)cc2c(=O)c(C(=O)O)cn(C3CC3)c12` , thanks.
Result block: ~1

---

# assay info: in vitro
# Format: in vitro ADME
# condition details: bovine, isolated protein, pH 7.4
endpoint: fraction unbound at 492 μg/ml
Numbers only.

Query block: fraction unbound at 492 μg/ml lookup needed for COc1c(N2C[C@@H]3CCCN[C@@H]3C2)c(F)cc2c(=O)c(C(=O)O)cn(C3CC3)c12 [moxifloxacin] , thanks.
Result block: 0.92

---

# assay info: in vitro
# Assay type: in vitro ADME
# condition details: bovine, pH 7.4
# Text: The volume of serous middle ear fluid (MEF) that accumulates in non-infected chinchillas with Eustachian tube obstruction varies greatly. […] It became necessary to formulate an artificial middle ear fluid (AMEF) that mimics the MEF.
endpoint: fraction unbound

Query block: fraction unbound lookup needed for `COc1c(N2C[C@@H]3CCCN[C@@H]3C2)c(F)cc2c(=O)c(C(=O)O)cn(C3CC3)c12` , thanks.
Result block: 0.84 to 0.92

---

# assay info: in vitro
# Type: in vitro ADME
# condition details: bovine, isolated protein, pH 7.4
endpoint: fraction unbound at 220 μg/ml

Query block: fraction unbound at 220 μg/ml lookup needed for `COc1c(N2C[C@@H]3CCCN[C@@H]3C2)c(F)cc2c(=O)c(C(=O)O)cn(C3CC3)c12` , thanks.
Result block: 0.84
